- Test system: K562
- EXPERIMENTAL PROTOCOL: Cytotoxicity against human K562 cells
- Format: functional, cell-based
PARAMETER MEASURED: IC50 (µM)
Return type: number; implicit unit µM.

Please give the measured IC50 for this molecule: O=C1NCc2c1c1c3ccccc3[nH]c1c1[nH]c3ccccc3c21
7.8

----------
Let's look at some compounds and their measured Activity.
- SYSTEM NAME: Protein kinase C gamma type (Homo sapiens)
- EXPERIMENTAL PROTOCOL: Inhibition of human full length (His)6-tagged PKCgamma expressed in insect Sf21 cells using histone H1 as substrate assessed as residual enzyme activity at 10 uM measured for 30 mins by [gamma-33P]ATP-based kinase assay
Numbers only here, please. The scale is %.

# annotated cases, reported Activity shown
O=c1[nH][nH]c2c1c1c3ccccc3[nH]c1c1[nH]c3ccccc3c12
99
O=c1[nH][nH]c(-c2c[nH]c3ccccc23)c1-c1c[nH]c2ccccc12
92
c1ccc2c(-c3cn[nH]c3-c3c[nH]c4ccccc34)c[nH]c2c1
91

Could you now look at the following compound, please?
Dear colleague, I am looking for the recorded Activity of the following compound: c1ccc2c(c1)[nH]c1c3[nH]c4ccccc4c3c3[nH]ncc3c21
91

FYI, the data here is from ChEMBL document CHEMBL3813662.
